Each recorded value in this set is attributed to patent US20110143953A1.

- System tested: T1, Gal80 (UniProt P04387 1-435, limits assumed, labelled with Cy3 or Cy5 in the peptide array screen)
- T1 sequence (looked up): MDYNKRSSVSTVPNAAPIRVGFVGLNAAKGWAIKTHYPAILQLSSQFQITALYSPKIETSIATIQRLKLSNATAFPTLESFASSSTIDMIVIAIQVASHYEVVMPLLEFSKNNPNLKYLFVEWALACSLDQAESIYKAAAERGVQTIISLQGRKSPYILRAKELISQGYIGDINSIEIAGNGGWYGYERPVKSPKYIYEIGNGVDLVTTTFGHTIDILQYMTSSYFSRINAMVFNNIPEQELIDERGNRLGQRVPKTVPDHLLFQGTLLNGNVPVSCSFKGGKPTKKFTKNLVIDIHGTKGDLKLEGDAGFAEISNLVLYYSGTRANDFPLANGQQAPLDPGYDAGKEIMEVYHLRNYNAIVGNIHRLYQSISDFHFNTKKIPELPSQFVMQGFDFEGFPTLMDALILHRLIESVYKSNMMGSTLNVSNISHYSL
- Method: gel shift assay; gel shift assay
Measurement type: Kd

- Binder: "linker-optimized BP1/BP2 DNA-linked synbody (BP1 on the template strand, BP2 at position 13 from the 3' end of the variable strand) (designed binder, not fully specified; C-terminal cysteine conjugated through SMCC to the amine-modified cytosine at position 13 from the 3' end of the DNA variable strand (SEQ ID NO: 15); C-terminal cysteine conjugated through SMCC to the amine-modified 5' terminal cytosine of the DNA template strand (SEQ ID NO: 14), The two peptides are held about 5 nm apart by a double-stranded DNA linker; also called Gal80 synbody; gal80 synbody) peptide 1: GTEKGTSGWLKTGSC peptide 2: EGEWTEGKLSLRGSC"
  Measurement type: "Kd"
  Test value: "~100 nM"
